# tested-on: ERα-LBD-ΔC4(D538G) (Homo sapiens, UniProt P03372, A546C/C417S/C530A/D538G/E380C/H547C)
# Construct: pMCSG7 leader with TEV site (ENLYFQ/SNA); made in house; host or cells: E. coli BL21(DE3)
# procedure-text: Titration FlAsH-ER assay, FlAsH apparent equilibrium dissociation constants (Kapp)
# Type: binding
# measurement-parameters: unliganded receptor (−E2)

# mol, Kd / nM
rows = [
    ("O=C(O)c1ccccc1-c1c2ccc(=O)c([As]3SCCS3)c-2oc2c([As]3SCCS3)c(O)ccc12", 570),
]

###

# tested-on: ERα-LBD-ΔC4(D538G) (Homo sapiens, UniProt P03372, A546C/C417S/C530A/D538G/E380C/H547C)
# Construct: pMCSG7 leader with TEV site (ENLYFQ/SNA); made in house; host or cells: E. coli BL21(DE3)
# procedure-text: Titration FlAsH-ER assay, FlAsH apparent equilibrium dissociation constants (Kapp)
# Type: binding
# measurement-parameters: liganded receptor (+E2)
measured-attribute: Kd (nM)

# mol, number
rows = [
    ("O=C(O)c1ccccc1-c1c2ccc(=O)c([As]3SCCS3)c-2oc2c([As]3SCCS3)c(O)ccc12", 160),
]

###

# tested-on: ERα-LBD-ΔC4(Y537S) (Homo sapiens, UniProt P03372, A546C/C417S/C530A/E380C/H547C/Y537S)
# Construct: pMCSG7 leader with TEV site (ENLYFQ/SNA); made in house; host or cells: E. coli BL21(DE3)
# Sequence (P03372 with tags, fused parts or gaps E380C/C417S/C530A/Y537S/A546C/H547C): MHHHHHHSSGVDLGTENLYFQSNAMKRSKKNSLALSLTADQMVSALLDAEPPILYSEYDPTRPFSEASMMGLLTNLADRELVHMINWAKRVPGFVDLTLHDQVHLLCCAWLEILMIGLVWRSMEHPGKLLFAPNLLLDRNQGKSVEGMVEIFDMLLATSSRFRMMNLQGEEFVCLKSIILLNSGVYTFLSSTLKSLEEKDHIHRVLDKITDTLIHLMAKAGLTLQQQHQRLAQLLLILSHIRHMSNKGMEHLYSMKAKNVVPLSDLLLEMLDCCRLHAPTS
# procedure-text: Titration FlAsH-ER assay, FlAsH apparent equilibrium dissociation constants (Kapp)
# Type: binding
# measurement-parameters: liganded receptor (+E2)
pKd: −log10 of the molar value.

# mol, pKd
measured = [
    ("O=C(O)c1ccccc1-c1c2ccc(=O)c([As]3SCCS3)c-2oc2c([As]3SCCS3)c(O)ccc12", 6.27),
]

###

# tested-on: ERα-LBD-ΔC4(Y537S) (Homo sapiens, UniProt P03372, A546C/C417S/C530A/E380C/H547C/Y537S)
# Construct: pMCSG7 leader with TEV site (ENLYFQ/SNA); made in house; host or cells: E. coli BL21(DE3)
# Sequence (P03372 with tags, fused parts or gaps E380C/C417S/C530A/Y537S/A546C/H547C): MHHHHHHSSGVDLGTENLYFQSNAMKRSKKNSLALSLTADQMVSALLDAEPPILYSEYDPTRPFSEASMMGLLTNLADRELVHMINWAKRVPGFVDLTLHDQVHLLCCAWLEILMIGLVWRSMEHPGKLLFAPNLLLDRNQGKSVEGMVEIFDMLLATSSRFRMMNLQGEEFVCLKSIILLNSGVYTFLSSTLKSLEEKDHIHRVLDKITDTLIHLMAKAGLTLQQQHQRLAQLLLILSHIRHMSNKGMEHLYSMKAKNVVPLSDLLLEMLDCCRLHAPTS
# procedure-text: Titration FlAsH-ER assay, FlAsH apparent equilibrium dissociation constants (Kapp)
# Type: binding
# measurement-parameters: unliganded receptor (−E2)

# mol, unit-string, Kd
data = [
    ("O=C(O)c1ccccc1-c1c2ccc(=O)c([As]3SCCS3)c-2oc2c([As]3SCCS3)c(O)ccc12", "µM", 0.9),
]
